# Test system: C. albicans ATCC 14053
# Assay type: cell-based, Candida albicans
Ends that are not written are not given here.
MEASUREMENT TYPE: Liquid Assay C. albicans ATCC 14053, minimal concentration required to kill (μm)

substance="H-RKSKEKIGKEFKRIVQRIKDFLRNLVPRTES-OH [RK-31]" unit_annotation=μm rel== numeric_readout=4
substance="KRIVQRIKDFLRNLVPRTES [KR-20]" unit_annotation=μm rel== numeric_readout=10
substance="SSLLEKGLDGAKKAVGGLGKLGKDAVEDLESVGKGAVHDVKDVLDSV (listed as Homo sapiens) [DCD, dermcidin antimicrobial peptide of human sweat, reference compound]" unit_annotation=μm rel=> numeric_readout=32
substance="H-KSKEKIGKEFKRIVQRIKDFLRNLVPRTES-OH [KS-30]" unit_annotation=μm rel== numeric_readout=2
